Ref: paper PMC7090077

# Tested On: VanR (Corynebacterium glutamicum, UniProt Q8NN31, R148L/Y103L/Y168M)
# Construct: gene Cgl2382; full length; GST fusion from pGEX-6p-1 in E. coli BL21(DE3), GST tag cleaved with PreScission protease; homodimer, ligand pocket at subunit interface
# Sequence (Q8NN31 entry or part of it Y103L/R148L/Y168M): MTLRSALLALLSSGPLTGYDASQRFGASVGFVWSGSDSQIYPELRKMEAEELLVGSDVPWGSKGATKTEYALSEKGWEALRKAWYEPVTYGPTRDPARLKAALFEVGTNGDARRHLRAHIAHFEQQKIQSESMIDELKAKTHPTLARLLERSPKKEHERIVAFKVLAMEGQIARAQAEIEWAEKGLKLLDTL
# Protocol Description: RFP reporter induction in E. coli BW25113 with plasmid pVanR
# Type: cell-based
Endpoint: EC50

compound OCCc1ccc(O)c(O)c1 [hydroxytyrosol] , EC50 observed: ~500 µM
